Hi there, I'd appreciate the recorded Count Neuron for every entry that follows.
System: excised human nerve tissue (or nerve extracts)
PROCEDURE TEXT: Phage display library screening (Example 2), NEB tissue-binding peptides: nerve tissue and nerve extracts versus muscle
COND: unique sequence count, tissue target: neuron, peptides not binding muscle extracts
Answers are plain numbers.

Please review the following examples before continuing.
- CONSTRUCT SEQUENCE: "SGEYNLIKPNLL"
  Count Neuron: 7
- CONSTRUCT SEQUENCE: "VERLNWPKRMQS"
  Count Neuron: 16
- CONSTRUCT SEQUENCE: "QSTLGVHMLRVS"
  Count Neuron: 7
- CONSTRUCT SEQUENCE: "SSLYMNGWSRDQ"
  Count Neuron: 26
- CONSTRUCT SEQUENCE: "DVMQMFHQVHFY"
  Count Neuron: 7

Respectfully, I request Count Neuron for each entry included below.
1. VPVPKKMSLDPT
2. MLRHVDLTEPNA
3. WPLKRFEQLPLK

1. 6
2. 6
3. 8

Respectfully, I request Count Neuron for each entry included below.
1. QNIVENFIDNER
2. YANGIEAKDSSR
3. GLLREPDELMFL
4. GLTIMSSRHSLQ
5. SPMANVWFNRLS

7
6
9
6
10

Respectfully, I request Count Neuron for each entry included below.
1. EMVPMKFLMMAK
2. DASQYPLVSGLW
3. WSGGMEDNSNRL
4. GTVSYMVKMDNN
5. EIIVMSGSNVTN
6. QRATNDILIRGW

1: 6; 2: 6; 3: 9; 4: 7; 5: 6; 6: 8

====

TEST SYSTEM: Human Myelin Basic Protein (Homo sapiens, UniProt P02686)
Sequence (P02686 135-304 limits assumed): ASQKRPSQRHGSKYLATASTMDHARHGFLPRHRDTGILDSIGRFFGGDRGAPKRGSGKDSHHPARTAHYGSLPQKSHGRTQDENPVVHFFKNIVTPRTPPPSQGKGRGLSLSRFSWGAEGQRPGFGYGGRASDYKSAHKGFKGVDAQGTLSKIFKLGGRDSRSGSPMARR
PROCEDURE TEXT: phage display R3, NGS count
Hi there, I'd appreciate the recorded Count for every entry that follows.
Give bare numbers.

Please review the following examples before continuing.
- SUBSTANCE: "MQTQGRV (peptide)"
  Count: 12
- SUBSTANCE: "DPWVMLR (peptide)"
  Count: 11
- SUBSTANCE: "QNTGLKW (peptide)"
  Count: 11
- SUBSTANCE: "HPSTWHK (peptide)"
  Count: 18
- SUBSTANCE: "HRLPWHH (peptide)"
  Count: 10

Respectfully, I request Count for each entry included below.
1. WTMKPNY (peptide)
2. DGKNTSN (peptide)

13
10

Respectfully, I request Count for each entry included below.
1. AGFPPNT (peptide)
2. AWSTSSV (peptide)
3. LRPISHE (peptide)
4. NDTKTPS (peptide)

[10, 12, 12, 19]

Respectfully, I request Count for each entry included below.
1. QIGVLPS (peptide)
2. SPDRTSL (peptide)

[11, 12]
